- System: pooled primary human hepatocyte suspensions
- method_notes: Hepatic clearance assay (substrate depletion, LC-MS)
- experimental_setup: Table 3; pooled human hepatocyte suspension, 1 μM; 0 = no significant clearance
In Vitro Clint listing for selected compounds.
measurement_label: In Vitro Clint

[[record]]
structure_notation = "O=S(=O)(O)CCC(F)(F)C(F)(F)C(F)(F)C(F)(F)C(F)(F)C(F)(F)F"
measured = "1.4 μL/min/million cells"

[[record]]
structure_notation = "O=C(O)CCC(F)(F)C(F)(F)C(F)(F)C(F)(F)C(F)(F)C(F)(F)F"
measured = "5.05 μL/min/million cells"

[[record]]
structure_notation = "O=S(=O)(O)CCC(F)(F)C(F)(F)C(F)(F)C(F)(F)F"
measured = "4.28 μL/min/million cells"

[[record]]
structure_notation = "O=S(=O)(O)C(F)(F)C(F)(F)C(F)(F)C(F)(F)F"
measured = "4.75 μL/min/million cells"

[[record]]
structure_notation = "O=C(O)CCC(F)(F)C(F)(F)C(F)(F)C(F)(F)C(F)(F)C(F)(F)C(F)(F)F"
measured = "15.7 μL/min/million cells"

[[record]]
structure_notation = "O=C(O)CCC(F)(F)C(F)(F)C(F)(F)C(F)(F)C(F)(F)F"
measured = "11.84 μL/min/million cells"


The measurements presented in this section are drawn from paper PMC11435625.
